Source listed as ChEMBL document CHEMBL1135434.

Organism: Rattus norvegicus
Assay: PK study was carried to determine AUC (area under curve) value in rat
Type: ADME, organism-based
Parameters: concentration or dose not given beside the values
Details: in vivo
measuredProperty: AUC (ng·h/mL)

# count of solved cases: 3
INSERT INTO measurements (recordsmiles, resultnumber) VALUES
  ('C[C@]1(C(=O)N2CCOCC2)CO[C@H](c2nc(-c3ccc(F)cc3)c(-c3ccncc3)[nH]2)OC1', 247),
  ('CN1CCN(C(=O)[C@]2(C)CO[C@@H](c3nc(-c4ccc(F)cc4)c(-c4ccnc(NCC5CC5)n4)[nH]3)OC2)CC1', 541),
  ('COCCCNc1nccc(-c2[nH]c([C@H]3OC[C@@](C)(C(=O)NCCOC)CO3)nc2-c2ccc(F)cc2)n1', 138);

I: C[C@]1(C(=O)NC2CC2)CO[C@H](c2nc(-c3ccc(F)cc3)c(-c3ccnc(NCC4CC4)n3)[nH]2)OC1
II: CC(C)NC(=O)[C@]1(C)CO[C@@H](c2nc(-c3ccc(F)cc3)c(-c3ccnc(NCC4CC4)n3)[nH]2)OC1
## Task Looking only at measured AUC, which entry is lower, I or II ? Returns: label corresponding to the selected item.
## Result I
(I: 288 ng·h/mL, II: 412 ng·h/mL)

----------
Molecular target: UniProt P06804
Sequence (P06804 whole entry): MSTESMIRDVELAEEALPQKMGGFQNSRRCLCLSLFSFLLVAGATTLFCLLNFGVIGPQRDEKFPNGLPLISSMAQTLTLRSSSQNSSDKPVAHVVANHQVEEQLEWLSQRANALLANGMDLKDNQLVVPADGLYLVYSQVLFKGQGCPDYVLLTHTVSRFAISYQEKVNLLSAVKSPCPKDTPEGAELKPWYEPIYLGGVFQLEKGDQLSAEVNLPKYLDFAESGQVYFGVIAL
Assay: Effective dose against LPS-stimulated Tumor necrosis factor, alpha release in mice dosed orally, 30 min prior to LPS challenge (0.1 mg/kg, ip)
Format: functional, organism-based
Below, each of the compounds is paired with its reported ED50 value.
State just the number; it will be interpreted in mg/kg.

INSERT INTO assay_data (recordsmiles, measuredproperty, resultnumber) VALUES
  ('COCCNc1nccc(-c2[nH]c([C@H]3OC[C@@](C)(C(=O)NCC4CC4)CO3)nc2-c2ccc(F)cc2)n1', 'ED50', 3),
  ('C[C@]1(C(=O)NC2CC2)CO[C@H](c2nc(-c3ccc(F)cc3)c(-c3ccnc(NCC4CC4)n3)[nH]2)OC1', 'ED50', 5),
  ('C=CCNc1nccc(-c2[nH]c([C@H]3OC[C@@](C)(C(=O)NCCOC)CO3)nc2-c2ccc(F)cc2)n1', 'ED50', 0.2);

## Task Any idea what its ED50 is? The compound is `COCCCNc1nccc(-c2[nH]c([C@H]3OC[C@@](C)(C(=O)NCCOC)CO3)nc2-c2ccc(F)cc2)n1`
## Result 5

## Task Param item: `CN(C)C(=O)[C@]1(C)CO[C@@H](c2nc(-c3ccc(F)cc3)c(-c3ccnc(NCC4CC4)n3)[nH]2)OC1`
## Result 9

----------
Assay: PK study was carried to determine the relative absorption ranking in rat.
Format: ADME, organism-based
Details: plasma, read-out: Cp max
measuredProperty: Cmax (ng/mL)

# count of solved cases: 5
INSERT INTO assay_data (recordsmiles, u, resultnumber) VALUES
  ('CS(=O)(=O)O.C[C@]1(C(=O)N2CCOCC2)CO[C@H](c2nc(-c3ccc(F)cc3)c(-c3ccncc3)[nH]2)OC1', 'ng/mL', 277),
  ('CCCNC(=O)[C@]1(C)CO[C@@H](c2nc(-c3ccc(F)cc3)c(-c3ccnc(NCc4ccco4)n3)[nH]2)OC1', 'ng/mL', 39),
  ('CN(C)C(=O)[C@]1(C)CO[C@@H](c2nc(-c3ccc(F)cc3)c(-c3ccnc(NCC4CC4)n3)[nH]2)OC1', 'ng/mL', 29),
  ('C[C@]1(C(=O)NC2CC2)CO[C@H](c2nc(-c3ccc(F)cc3)c(-c3ccnc(NCC4CC4)n3)[nH]2)OC1', 'ng/mL', 91),
  ('COCCNc1nccc(-c2[nH]c([C@H]3OC[C@@](C)(C(=O)NCC4CC4)CO3)nc2-c2ccc(F)cc2)n1', 'ng/mL', 62);

P: CC(C)NC(=O)[C@]1(C)CO[C@@H](c2nc(-c3ccc(F)cc3)c(-c3ccnc(NCC4CC4)n3)[nH]2)OC1
Q: CN1CCN(C(=O)[C@]2(C)CO[C@@H](c3nc(-c4ccc(F)cc4)c(-c4ccnc(NCC5CC5)n4)[nH]3)OC2)CC1
## Task Lab note: record which item had the higher Cmax, P or Q . Returns: label corresponding to the selected item.
## Result Q

I: CCCNC(=O)[C@]1(C)CO[C@@H](c2nc(-c3ccc(F)cc3)c(-c3ccnc(NCCCOC)n3)[nH]2)OC1
II: COCCCNc1nccc(-c2[nH]c([C@H]3OC[C@@](C)(C(=O)NCCOC)CO3)nc2-c2ccc(F)cc2)n1
III: C[C@]1(C(=O)N2CCOCC2)CO[C@H](c2nc(-c3ccc(F)cc3)c(-c3ccncc3)[nH]2)OC1
## Task Would you mind ranking these molecules by ascending Cmax? # list labels per requested ordering
## Result III, II, I
(III: 60 ng/mL, II: 89 ng/mL, I: 270 ng/mL)

----------
Target: MAP kinase p38 (Mus musculus, UniProt P47811+O08911+Q9WUI1+Q9Z1B7)
Assay: Inhibition of murine Mitogen-activated protein kinase p38
Type: protein assay
measuredProperty: IC50 (nM)

INSERT INTO assay_data (recordsmiles, u, resultnumber) VALUES
  ('CN(C)C(=O)[C@]1(C)CO[C@@H](c2nc(-c3ccc(F)cc3)c(-c3ccnc(NCc4ccccn4)n3)[nH]2)OC1', 'nM', 4),
  ('CCCNC(=O)[C@]1(C)CO[C@@H](c2nc(-c3ccc(F)cc3)c(-c3ccnc(NCCCOC)n3)[nH]2)OC1', 'nM', 6),
  ('CN1CCN(C(=O)[C@]2(C)CO[C@@H](c3nc(-c4ccc(F)cc4)c(-c4ccnc(NCC5CC5)n4)[nH]3)OC2)CC1', 'nM', 4),
  ('CN(C)C(=O)[C@]1(C)CO[C@@H](c2nc(-c3ccc(F)cc3)c(-c3ccnc(NCC4CC4)n3)[nH]2)OC1', 'nM', 6),
  ('C=CCNc1nccc(-c2[nH]c([C@H]3OC[C@@](C)(C(=O)NCCOC)CO3)nc2-c2ccc(F)cc2)n1', 'nM', 62);

I: COCCCNc1nccc(-c2[nH]c([C@H]3OC[C@@](C)(C(=O)NCCOC)CO3)nc2-c2ccc(F)cc2)n1
II: COCCNc1nccc(-c2[nH]c([C@H]3OC[C@@](C)(C(=O)NCC4CC4)CO3)nc2-c2ccc(F)cc2)n1
## Task Looking only at measured IC50, which entry is lower, I or II ? Returns: label corresponding to the selected item.
## Result II

----------
Below, each of the compounds is paired with its reported ED50 value.
Biological target: UniProtKB P06804
Assay: Effective dose against LPS-stimulated Tumor necrosis factor, alpha release in mice dosed orally, 30 min prior to LPS challenge (0.1 mg/kg, ip)
Format: functional, organism-based
State just the number; it will be interpreted in mg/kg.

# count of solved cases: 3
INSERT INTO measurements (recordsmiles, u, resultnumber) VALUES
  ('CC(C)NC(=O)[C@]1(C)CO[C@@H](c2nc(-c3ccc(F)cc3)c(-c3ccnc(NCC4CC4)n3)[nH]2)OC1', 'mg/kg', 0.7),
  ('CN1CCN(C(=O)[C@]2(C)CO[C@@H](c3nc(-c4ccc(F)cc4)c(-c4ccnc(NCC5CC5)n4)[nH]3)OC2)CC1', 'mg/kg', 10),
  ('CCCNC(=O)[C@]1(C)CO[C@@H](c2nc(-c3ccc(F)cc3)c(-c3ccnc(NCCCOC)n3)[nH]2)OC1', 'mg/kg', 6);

## Task Please tell me: ED50 of `CN(C)C(=O)[C@]1(C)CO[C@@H](c2nc(-c3ccc(F)cc3)c(-c3ccnc(NCc4ccccn4)n3)[nH]2)OC1` , system UniProtKB P06804?
## Result 8

----------
Target: MAP kinase p38 (Mus musculus, UniProt P47811+O08911+Q9WUI1+Q9Z1B7)
Assay: Inhibition of murine Mitogen-activated protein kinase p38
Assay type: protein assay
measuredProperty: IC50 (nM)

# count of solved cases: 2
INSERT INTO assay_data (recordsmiles, measuredproperty, resultnumber) VALUES
  ('CS(=O)(=O)O.C[C@]1(C(=O)N2CCOCC2)CO[C@H](c2nc(-c3ccc(F)cc3)c(-c3ccncc3)[nH]2)OC1', 'IC50', 110),
  ('CCCNC(=O)[C@]1(C)CO[C@@H](c2nc(-c3ccc(F)cc3)c(-c3ccnc(NCc4ccco4)n3)[nH]2)OC1', 'IC50', 6);

A: C[C@]1(C(=O)NC2CC2)CO[C@H](c2nc(-c3ccc(F)cc3)c(-c3ccnc(NCC4CC4)n3)[nH]2)OC1
B: CC(C)NC(=O)[C@]1(C)CO[C@@H](c2nc(-c3ccc(F)cc3)c(-c3ccnc(NCC4CC4)n3)[nH]2)OC1
## Task Lab note: record which item had the higher IC50, A or B . Returns: label corresponding to the selected item.
## Result B
(B: 12 nM, A: 5 nM)
